B1: ACBD3 (parent)
chain: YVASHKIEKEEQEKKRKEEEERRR

Variants of: B1
method description: protein stability index of a GFP-peptide fusion (GPS, HEK-293T) (PSI 1-6); higher = more stable;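 further: lentivirally expressed fusions sorted by FACS into six bins by GFP to DsRed ratio, PSI derived from sequencing read proportions per bin multiplied by bin number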
measurement parameters: c terminus: a fixed tail appended
Reported protein stability index values are given for each entry in this list.
# output: bare number, no unit

Illustrative cases are given below, each with its answer.
| mutant id | observed result |
| --- | --- |
| Y1F | 2.11 |
| V2Y | 4.75 |

Look up protein stability index for this variant: R16D
2.76

Look up protein stability index for this variant: E8D
2.74

Look up protein stability index for this variant: E21C
2.21

Look up protein stability index for this variant: K15A
3.27

Look up protein stability index for this variant: E19I
3.02

src = the supplement of paper PMC10567573
